Exercise: for every item that follows, state its recorded Kochia plant response rating (0 to 100 scale).
# System: kochia (Kochia scoparia)
# assayComment: Test A preemergence, directed soil spray, visual injury rating
# Format: in vivo
# conditionParameters: 125 g ai/ha, approx. 10 d, 0 = no effect, 100 = complete control
# Description: Seeds of plant species selected from barnyardgrass (Echinochloa crus-galli), kochia (Kochia scoparia), ragweed (common ragweed, Ambrosia elation), ryegrass, Italian (Italian ryegrass, Lolium multiflorum), foxtail, giant (giant foxtail, Setaria faberii), and pigweed (Amaranthus retroflexus), were planted into a blend of loam soil and sand and treated preemergence with a directed soil spray using test chemicals formulated in a non-phytotoxic solvent mixture which included a surfactant. […]
Answer with the value's number alone.

Request: Which Kochia plant response rating (0 to 100 scale) value belongs to CSc1ccccc1NC(=O)C1c2nncn2CC1c1ccc(C)c(C)c1 (stereo not shown) ?
Response: 0

Request: Which Kochia plant response rating (0 to 100 scale) value belongs to Cc1ccc(C2Cn3cnnc3C2C(=O)Nc2ccccc2F)cc1 (stereo not shown) ?
Response: 70

Request: Which Kochia plant response rating (0 to 100 scale) value belongs to Cc1ccc(C2Cn3c(C)nnc3C2C(=O)Nc2cccc(F)c2F)cc1C (stereo not shown) ?
Response: 0

Request: Which Kochia plant response rating (0 to 100 scale) value belongs to Cc1ccc(C2Cn3cnnc3C2C(=O)Nc2cccc(F)c2F)cc1C (stereo not shown) ?
Response: 70

Request: Which Kochia plant response rating (0 to 100 scale) value belongs to Cc1nnc2n1CC(c1ccc(C(F)(F)F)cc1)C2C(=O)Nc1ccccc1C(F)(F)F (stereo not shown) ?
Response: 0

Request: Which Kochia plant response rating (0 to 100 scale) value belongs to O=C(Nc1ccccc1F)C1C2=NCCCN2CC1c1cccc(C(F)(F)F)c1 (stereo not shown) ?
Response: 0

Request: Which Kochia plant response rating (0 to 100 scale) value belongs to Cc1nnc2n1CC(c1ccc(C(F)(F)F)cc1)C2C(=O)Nc1ccccc1F (stereo not shown) ?
Response: 0

Request: Which Kochia plant response rating (0 to 100 scale) value belongs to O=C(Nc1ccccc1F)C1c2nccn2CC1c1cccc(C(F)(F)F)c1 (stereo not shown) ?
Response: 0

Request: Which Kochia plant response rating (0 to 100 scale) value belongs to O=C(Nc1ccccc1F)C1C2=NCC(=O)N2CC1c1cccc(C(F)(F)F)c1 (stereo not shown) ?
Response: 0

Request: Which Kochia plant response rating (0 to 100 scale) value belongs to CCc1ccc(C2Cn3c(C)nnc3C2C(=O)Nc2ccccc2SC)cc1 (stereo not shown) ?
Response: 0

The reported numbers originate from patent US10442807B2.
